# experimental.system: T1, Par(1-170) (Staphylococcus aureus plasmid pSK1, UniProt Q9L8I7 1-170)
# T1 sequence: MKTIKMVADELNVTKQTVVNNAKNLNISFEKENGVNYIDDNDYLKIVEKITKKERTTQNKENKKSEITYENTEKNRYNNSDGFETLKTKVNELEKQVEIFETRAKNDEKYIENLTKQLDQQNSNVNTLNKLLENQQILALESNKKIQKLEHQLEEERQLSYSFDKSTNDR
# protocol.summary: fluorescence polarization
recorded.metric: Kd (nM)
Give bare numbers, in nM.

centromere repeat 4 (dsDNA) DNA 1: ATGTTAGGCGGTAAACTA DNA 2: TAGTTTACCGCCTAACAT	140
centromere repeat 3 (dsDNA) DNA 1: ATGTTAGGTGGTAAACTA DNA 2: TAGTTTACCACCTAACAT	62.7
centromere repeat 1 (dsDNA) DNA 1: ATGTTAGGTGCCTAACTA DNA 2: TAGTTAGGCACCTAACAT	67.5
centromere repeat 6 (dsDNA) DNA 1: ATGTTAGGTACTTAGCTA DNA 2: TAGCTAAGTACCTAACAT	90.2
centromere repeat 2/5/7 (dsDNA) DNA 1: ATGTTAGGTAGTAAACTA DNA 2: TAGTTTACTACCTAACAT	66.5

Would you mind listing Kd for each of the following binders?
1. half site mutant 18-mer (dsDNA) DNA 1: ATGTTAGGTACCCGACTA DNA 2: TAGTCGGGTACCTAACAT
2. palindromic 18-mer (crystallization site), FP (dsDNA) DNA 1: ATGTTAGGTACCTAACTA DNA 2: TAGTTAGGTACCTAACAT

Reply:
195
43.4
